// reported Km per item
# assay_comment: Steady state kinetics of purified NTR, variable substrate NADH
# Format: biochemical
# setup_conditions: fixed substrate nitrofurazone, 10 mM Tris HCl pH 7.0, 25° C., 4% DMSO
measurement_label: Km (µM)

molecule	value
F124H: NTR mutant, phenylalanine 124 to histidine (protein) MDIISVALKRHSTKAFDASKKLTPEQAEQIKTLLQYSPSSTNSQPWHFIVASTEEGKARVAKSAAGNYVFNERKMLDASHVVVFCAKTAMDDVWLKLVVDQEDADGRFATPEAKAANDKGRKFHADMHRKDLHDDAEWMAKQVYLNVGNFLLGVAALGLDAVPIEGFDAAILDAEFGLKEKGYTSLVVVPVGHHSVEDFNATLPKSRLPQNITLTEV	3
Y68G: NTR mutant, tyrosine 68 to glycine (protein) MDIISVALKRHSTKAFDASKKLTPEQAEQIKTLLQYSPSSTNSQPWHFIVASTEEGKARVAKSAAGNGVFNERKMLDASHVVVFCAKTAMDDVWLKLVVDQEDADGRFATPEAKAANDKGRKFFADMHRKDLHDDAEWMAKQVYLNVGNFLLGVAALGLDAVPIEGFDAAILDAEFGLKEKGYTSLVVVPVGHHSVEDFNATLPKSRLPQNITLTEV	22
F124K: NTR mutant, phenylalanine 124 to lysine (protein) MDIISVALKRHSTKAFDASKKLTPEQAEQIKTLLQYSPSSTNSQPWHFIVASTEEGKARVAKSAAGNYVFNERKMLDASHVVVFCAKTAMDDVWLKLVVDQEDADGRFATPEAKAANDKGRKFKADMHRKDLHDDAEWMAKQVYLNVGNFLLGVAALGLDAVPIEGFDAAILDAEFGLKEKGYTSLVVVPVGHHSVEDFNATLPKSRLPQNITLTEV	1
Wild type: wild-type E. coli nitroreductase (NTR) encoded by the NfsB gene, SEQ ID NO:1 (protein, listed as Escherichia coli) MDIISVALKRHSTKAFDASKKLTPEQAEQIKTLLQYSPSSTNSQPWHFIVASTEEGKARVAKSAAGNYVFNERKMLDASHVVVFCAKTAMDDVWLKLVVDQEDADGRFATPEAKAANDKGRKFFADMHRKDLHDDAEWMAKQVYLNVGNFLLGVAALGLDAVPIEGFDAAILDAEFGLKEKGYTSLVVVPVGHHSVEDFNATLPKSRLPQNITLTEV	7

Cited source: patent US20050013808A1
